Data provenance: patent US20110039762A1

test system: M. luteus; assay: Kill or inhibit growth/proliferation; morphology, biofilm and growth disruption (Tables 5, 6); assay type: cell-based, Micrococcus luteus; set-up: key: A: Peptide aggregates; B: Less hyphal formation; Clumps; Diffuse clumps and small polyps; F: Diffuse growth; H: Thin; I: Growth inhibition; Microcolony formation; Rippled; Small polyps; Thick; W: Halo formation on top, microlonies on bottom; further: test concentration or dose not given here
attribute_measured: Organism, effect

substance="PF-543: peptide having multiple activities (chain 1 NILFGIIGFVVAMTAAVIVTAISIAK; chain 2 NILFGIIGFVVAMTAAVIVTAISIAK; Peptide with targeting and/or antimicrobial activity)" recorded_measurement="M. luteus (C)"
substance="PF-250 (SEDIFGRLANEKANGLEELRKIRLKQ; Peptide with targeting and/or antimicrobial activity)" recorded_measurement="M. luteus (T)"
substance="PF-043: peptide having multiple activities (chain 1 MIKNETAYQMNELLVIRSAYAK; chain 2 MIKNETAYQMNELLVIRSAYAK; Peptide with targeting and/or antimicrobial activity)" recorded_measurement="M. luteus (C)"
substance="PF-234: peptide having multiple activities (RTPYILRS; Peptide with targeting and/or antimicrobial activity)" recorded_measurement="M. luteus (T)"
substance="PF-042: peptide having multiple activities (chain 1 LLLSYFRYTGALLQSLF; chain 2 LLLSYFRYTGALLQSLF; Peptide with targeting and/or antimicrobial activity)" recorded_measurement="M. luteus (C)"
substance="PF-021: peptide having multiple activities (chain 1 FSLNFSKQKYVTVN; chain 2 FSLNFSKQKYVTVN; Peptide with targeting and/or antimicrobial activity)" recorded_measurement="M. luteus (A)"
substance="PF-204: peptide having multiple activities (ALQKQDMNLPSVKNQLVFLKSTG; Peptide with targeting and/or antimicrobial activity)" recorded_measurement="M. luteus (C)"
substance="PF-271: peptide having multiple activities (AAQPQTTSP; Peptide with targeting and/or antimicrobial activity)" recorded_measurement="M. luteus (T)"
substance="PF-634: peptide having multiple activities (chain 1 MPKARPVNHNKKKSKITIKSNFTLFYMFNP; chain 2 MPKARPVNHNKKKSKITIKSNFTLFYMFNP; Peptide with targeting and/or antimicrobial activity)" recorded_measurement="M. luteus (C)"
substance="TKKIELKRFVDAFVKKSYENYILERELKKLIKAINEELPTK [PF-600]" recorded_measurement="M. luteus (C)"
substance="RRGCTERLRRMARRNAWDLYAEHFY [PF-148]" recorded_measurement="M. luteus (A)"
substance="PF-235: peptide having multiple activities (GIPFSKPHKRQVNYMKSDVLAYIEQNKMAHTA; Peptide with targeting and/or antimicrobial activity)" recorded_measurement="M. luteus (T)"
